- target_desc: human adenosine A2b receptor (Homo sapiens)
- Construct: expressed in transfected cells; host or cells: CHO cells, co-transfected with the pCRE-LUCI reporter plasmid
- Sequence (P29275 whole entry): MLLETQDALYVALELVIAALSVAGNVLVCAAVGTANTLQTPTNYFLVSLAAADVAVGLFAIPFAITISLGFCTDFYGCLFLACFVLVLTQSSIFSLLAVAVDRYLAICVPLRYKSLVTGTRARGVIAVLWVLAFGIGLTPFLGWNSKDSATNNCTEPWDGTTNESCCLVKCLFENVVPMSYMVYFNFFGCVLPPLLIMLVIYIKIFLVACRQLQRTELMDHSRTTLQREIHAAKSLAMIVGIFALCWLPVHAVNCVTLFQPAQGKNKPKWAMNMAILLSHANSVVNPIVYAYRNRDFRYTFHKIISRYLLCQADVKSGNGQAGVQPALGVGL
- experiment_notes: Adenosine A2b receptor reporter gene assay (luciferase, CHO-A2b cells)
- Format: cell-based
- assay_conditions: CHO cells transfected with human A2b receptor and pCRE-LUCI; NECA as agonist; KB from shift of the curve at 100 nM or 1 μM antagonist
quantity_kind: Kb (nM)
Reply numerically in nM, unit not repeated.

// below: answered compounds
Enquiry: Identify the measured Kb of "N#Cc1cccc(-c2nc(Nc3cnccn3)sc2-n2cncn2)c1" for human adenosine A2b receptor (Homo sapiens).
Return: 10

Enquiry: Identify the measured Kb of "COCCOc1cncc(Nc2nc(-c3cccc(C#N)c3)c(-n3cncn3)s2)n1" for human adenosine A2b receptor (Homo sapiens).
Return: 12

Enquiry: Identify the measured Kb of "Cc1cccc(Nc2nc(-c3cccc(C#N)c3)c(-n3cncn3)s2)n1" for human adenosine A2b receptor (Homo sapiens).
Return: 20

Enquiry: Identify the measured Kb of "COc1ccc(C(=O)Nc2nc(-c3cccc(C#N)c3)c(-n3cncn3)s2)cc1" for human adenosine A2b receptor (Homo sapiens).
Return: 31

Below: the item to evaluate.
Enquiry: Identify the measured Kb of "Cn1cccc1C(=O)Nc1nc(-c2cccc(C#N)c2)c(-n2cncn2)s1" for human adenosine A2b receptor (Homo sapiens).
Return: 17
